Test system: MMP-9 release
run_description: Inhibition of MMP-9 release from human neutrophils (human MMP-9 ELISA)
Type: cell-based
protocol_conditions: Neutrophil, RPMI 1640 plus 1% BSA, 4 hours, 4 individuals, 4-parameter logistic curve fit
endpoint_name: IC50 (nM)
The reply should be a number in nM, with the unit left off.

Prompt: What measured IC50 goes with CN(CCOc1ccc(CC2SC(=O)NC2=O)cc1)c1ccccn1 (stereo not shown) ?
Response: 10.6

Measured values drawn from patent US20040034067A1 for this set.
